Origin of measurements: patent US8871934B2

- targetOrTestSystem: human PDHK2 (hPDHK2) (Homo sapiens (Human), UniProt Q15119)
- assayName: Inhibitory action of PDHK activity in vitro (kinase reaction, residual PDH activity measured)
- Format: biochemical
- experimentalParameters: read-out: PDHK inhibitory activity IC50
Checkbox rule: IC50 lower than 600 nM = TRUE; IC50 not lower than 600 nM = FALSE.

Prompt line: Does the reported IC50 of CC(C)n1cc(-c2cccc3c2-c2ccccc2C3(O)C(F)(F)F)cn1 (stereo not drawn) stay below 600 nM?
Response line: TRUE

Prompt line: Does the reported IC50 of CN(C)C(=O)COC1CN(C(=O)c2ccc3c(c2)C(O)(C(F)(F)F)c2ccccc2-3)C1 (stereo not drawn) stay below 600 nM?
Response line: FALSE

Prompt line: Does the reported IC50 of O=C(c1cc(-c2cnn(CCO)c2)c2c(c1)C(O)(C(F)(F)F)c1ccccc1-2)N1CCCC1 (stereo not drawn) [compound 476] stay below 600 nM?
Response line: TRUE

Prompt line: Does the reported IC50 of COC(=O)c1cc(Br)c2c(c1)C(O)(C(F)(F)F)c1ccccc1-2 (single isomer, unassigned) [compound 473] stay below 600 nM?
Response line: TRUE

Prompt line: Does the reported IC50 of CNC(=O)Cn1cc(-c2cc(Cl)cc3c2-c2ccccc2C3(O)C(F)(F)F)cn1 (stereo not drawn) stay below 600 nM?
Response line: TRUE

Prompt line: Does the reported IC50 of CCCCCCOc1ccc2c(c1)C(O)(C(F)(F)F)c1ccccc1-2 (stereo not drawn) stay below 600 nM?
Response line: FALSE

Prompt line: Does the reported IC50 of COC1CN(C(=O)c2ccc3c(c2)C(O)(C(F)(F)F)c2ccccc2-3)C1 (stereo not drawn) stay below 600 nM?
Response line: TRUE

Prompt line: Does the reported IC50 of C#Cc1cc(C(N)=O)c2c(c1)C(O)(C(F)(F)F)c1ccccc1-2 (stereo not drawn) stay below 600 nM?
Response line: TRUE

Prompt line: Does the reported IC50 of O[C@H]1CCN(CCOc2ccc3c(c2)C(O)(C(F)(F)F)c2ccccc2-3)C1 (stereo partly drawn) stay below 600 nM?
Response line: FALSE

Prompt line: Does the reported IC50 of CN(C)C(=O)c1ccc(-c2ccc3c(c2)C(O)(C(F)(F)F)c2ccccc2-3)cc1Cl (stereo not drawn) stay below 600 nM?
Response line: TRUE

Prompt line: Does the reported IC50 of CC(=O)N(C)C(C)COc1ccc2c(c1)C(O)(C(F)(F)F)c1ccccc1-2 (stereo not drawn) stay below 600 nM?
Response line: TRUE

Prompt line: Does the reported IC50 of CN(C)C(=O)C1CCCN1C(=O)c1ccc2c(c1)C(O)(C(F)(F)F)c1ccccc1-2 (stereo not drawn) stay below 600 nM?
Response line: FALSE

Prompt line: Does the reported IC50 of CN(C)C(=O)C1CCN(c2ccc3c(c2)C(O)(C(F)(F)F)c2ccccc2-3)CC1 (stereo not drawn) stay below 600 nM?
Response line: FALSE

Prompt line: Does the reported IC50 of CCOC(=O)c1ccc(-c2cc(Cl)c3c(c2)C(O)(C(F)(F)F)c2ccccc2-3)cc1 (stereo not drawn) stay below 600 nM?
Response line: TRUE

Prompt line: Does the reported IC50 of Cc1cc(C(=O)N2CC(CO)C2)cc2c1-c1ccccc1C2(O)C(F)(F)F (stereo not drawn) stay below 600 nM?
Response line: TRUE

Prompt line: Does the reported IC50 of CC(C)(C)Cn1cc(-c2cc(CO)c3c(c2)C(O)(C(F)(F)F)c2ccccc2-3)cn1 (stereo not drawn) [compound 650] stay below 600 nM?
Response line: TRUE

Prompt line: Does the reported IC50 of COc1nc2c(cc1C(=O)N1CCC1)C(O)(C(F)(F)F)c1ccccc1-2 (stereo not drawn) stay below 600 nM?
Response line: FALSE

Prompt line: Does the reported IC50 of N#CCc1cc(Cl)cc2c1-c1ccccc1C2(O)C(F)(F)F (stereo not drawn) stay below 600 nM?
Response line: FALSE

Prompt line: Does the reported IC50 of CN(CCOc1ccc2c(c1)C(O)(C(F)(F)F)c1ccccc1-2)CC(=O)O (stereo not drawn) stay below 600 nM?
Response line: FALSE

Prompt line: Does the reported IC50 of CC(=O)NCCOc1cc(-c2cnn(C)c2)c2c(c1)C(O)(C(F)(F)F)c1ccccc1-2 (stereo not drawn) stay below 600 nM?
Response line: TRUE

Prompt line: Does the reported IC50 of CCOC(=O)CCCCOc1ccc2c(c1)C(O)(C(F)(F)F)c1ccccc1-2 (stereo not drawn) stay below 600 nM?
Response line: TRUE

Prompt line: Does the reported IC50 of NC(=O)Cn1cc(-c2cc(OCCC34CC5CC(CC(C5)C3)C4)cc3c2-c2ccccc2C3(O)C(F)(F)F)cn1 (stereo not drawn) stay below 600 nM?
Response line: TRUE

Prompt line: Does the reported IC50 of OCc1cccc2c1-c1ccccc1C2(O)C(F)(F)F (stereo not drawn) stay below 600 nM?
Response line: FALSE

Prompt line: Does the reported IC50 of OC1(C(F)(F)F)c2ccccc2-c2ccc(-n3cccn3)cc21 (stereo not drawn) stay below 600 nM?
Response line: FALSE

Prompt line: Does the reported IC50 of Cc1ccc(-c2cccc3c2-c2ccccc2C3(O)C(F)(F)F)cn1 (stereo not drawn) stay below 600 nM?
Response line: TRUE

Prompt line: Does the reported IC50 of OC1(C(F)(F)F)c2ccccc2-c2c(-c3ccsc3)cccc21 (stereo not drawn) stay below 600 nM?
Response line: FALSE

Prompt line: Does the reported IC50 of O=C(c1ccccc1)c1ccc2c(c1)C(O)(C(F)(F)F)c1ccccc1-2 (stereo not drawn) stay below 600 nM?
Response line: FALSE

Prompt line: Does the reported IC50 of O=C(O)CCCOc1ccc2c(c1)C(O)(C(F)(F)F)c1ccccc1-2 (stereo not drawn) stay below 600 nM?
Response line: FALSE

Prompt line: Does the reported IC50 of CNc1ccc2c(c1)C(O)(C(F)(F)F)c1ccccc1-2 (stereo not drawn) stay below 600 nM?
Response line: FALSE

Prompt line: Does the reported IC50 of Cc1cc(-c2cnn(CCCCC(=O)O)c2)c2c(c1)C(O)(C(F)(F)F)c1ccccc1-2 (single isomer, unassigned) stay below 600 nM?
Response line: TRUE

Prompt line: Does the reported IC50 of CNC(=O)CCn1cc(-c2cccc3c2-c2ccccc2C3(O)C(F)(F)F)cn1 (stereo not drawn) stay below 600 nM?
Response line: TRUE

Prompt line: Does the reported IC50 of NC(=O)c1cc(Cl)cc2c1-c1ccccc1C2(O)C(F)(F)F (stereo not drawn) stay below 600 nM?
Response line: TRUE
